Measured values drawn from PubChem BioAssay (NCI) for this set.

Tested on: KM12 colon
ASSAY_NAME: NCI tumour cell line growth inhibition, 48 h
Provide the reported TGI of each item.

Please review the following examples before continuing.
- COMPOUND: "COc1ccc(C2C3=C(COC3=O)Oc3cc4c(cc32)OCO4)c(OC)c1 (centres undefined)"
  TEST_VALUE: "> 100 µM"
- COMPOUND: "CC[C@]1(O)C(=O)OCc2c1cc1n(c2=O)Cc2cc3c(N)cccc3nc2-1"
  TEST_VALUE: "> 100 µM"
- COMPOUND: "O=S(=O)(O)c1ccc(N=Nc2ccc(N=Nc3ccc(/C=C/c4ccc(N=[N+]([O-])c5ccc(/C=C/c6ccc(N=Nc7ccc(N=Nc8ccc(S(=O)(=O)O)cc8)cc7)cc6S(=O)(=O)O)c(S(=O)(=O)O)c5)cc4S(=O)(=O)O)c(S(=O)(=O)O)c3)cc2)cc1"
  TEST_VALUE: "> 100 µM"

State the recorded TGI for every item in the following list.
1. CC[PH+](CC)CC.O=COC1OC([S-])C(OC=O)C(OC=O)C1OC=O.[Au+] (centres undefined)
2. C/C(CCc1ccccc1)=N\NC(N)=S
3. N#C/C(C(=O)Nc1ccc(Cl)cc1)=C(/N)N1CCCC1

3.19 µM
> 100 µM
> 100 µM
